# credit: PubChem BioAssay (NCI)

- test-method-notes: NCI Yeast Anticancer Drug Screen. Data for the mlh1 rad18 strain (AID 175)
- setup-conditions: S. cerevisiae mlh1 rad18 strain growth inhibition; at 5.0 µM (retest, dose inferred, filed as 0.5)
Compounds without any hit were thinned out: in the full panel of roughly 79,000, 15% have a hit. Activity calls are given as the source filed them. Cut-off read from the data, not from the text of the source: active = growth inhibition above about 70%; inactive = the rest.
Please state which outcome applies, choosing from True (active), False (inactive)

{"columns": ["compound", "answer-label"],
 "data": [
  ["COc1cccc2c1C(=O)c1c(O)c3c(c(O)c1C2=O)CC(O)(C(O)CO)CC3OC1CC(N2CCOCC2)C(O)C(C)O1 (stereo unspecified)", "True"],
  ["CN(C)CCNC(=O)c1cccc2c1Oc1c(cccc1[N+](=O)[O-])O2", "False"],
  ["CCCCNC1CCC2(SCCS2)c2[nH]c3ccccc3c21 (stereo unspecified)", "False"],
  ["COc1ccc(C(=O)c2ccccc2C(=O)c2ccccc2OC)cc1", "False"]
]}

Q: Look up the recorded call for CC1SC2(C(=O)Nc3ccc(Cl)cc32)N(c2ccc(Cl)cc2)C1=O (stereo unspecified) in this test.
Result: False

Q: Look up the recorded call for O=C(O)Cc1cc(F)ccc1C(=O)O in this test.
Result: False

----------
- test-method-notes: NCI Yeast Anticancer Drug Screen. Data for the rad50 strain (AID 155);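 note: 0% = growth of vehicle-only cultures of the same strain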
- setup-conditions: S. cerevisiae rad50 strain growth inhibition; at 3.7 µM; active compounds read high
This is part of a sample that, as a whole, favours compounds with a hit. Of some 79,000 tested, about 15% had one in any assay.
Quick reference: growth inhibition of the listed items.
Only the number, expressed in %, is required.

Solved entries (count: 5):
{"columns": ["compound", "growth inhibition (%)"],
 "data": [
  ["Cc1cc2c(cc1C)[n+]([O-])c(-c1nc3ccccc3s1)c(N)[n+]2[O-]", 10],
  ["O=c1[nH]c2ccc(Cl)cc2o1", -23],
  ["O=C1C=C(c2ccccc2)OC1(c1ccccc1)N1CCOCC1 (stereo unspecified)", 4],
  ["CCCCCCCCCCCC(O)S(=O)(=O)O (stereo unspecified)", 3],
  ["N#CNC(N)=Nc1cc2ccccc2c2ccccc12", 69]
]}

Please examine the following record next.
Q: Given O=c1nc2n(Cc3ccccc3)c3ccccc3nc-2c(=O)[nH]1 , respond with its growth inhibition.
Result: -1

----------
- test-method-notes: NCI Yeast Anticancer Drug Screen. Data for the rad18 strain (AID 177)
- setup-conditions: S. cerevisiae rad18 mutant growth inhibition; at 1.2 µM; active compounds read high
The panel holds about 79,000 compounds, 15% with a hit somewhere; the sample as a whole holds those more often.
Quick reference: growth inhibition of the listed items.
Only the number, expressed in %, is required.

{"columns": ["line-notation", "result-value"],
 "data": [
  ["Cc1cccc2c1nc1ccc(Cl)cc1[n+]2C", 25],
  ["O=C1C=C(Cl)C(=O)N1c1cccc(Cl)c1", -1],
  ["O=c1ssc(=Nc2ccccc2)n1-c1ccccc1", 4],
  ["Cc1ccc(NCCNCCO)c2c(=O)c3cc(O)ccc3sc12", -35],
  ["COC(=O)Nc1cn2ccc(C(Cl)=C(Cl)Cl)cc2n1", -16]
]}

Q: Given O=[N+]([O-])c1cc[n+]([O-])cc1 , respond with its growth inhibition.
Result: -2

Q: Given CC(C)(CCCCC(C)(C)[N+](C)(C)C)[N+](C)(C)C , respond with its growth inhibition.
Result: -4
